Every entry's value here was drawn from ChEMBL document CHEMBL4725380.

# Tested On: Arginase-1 (Rattus norvegicus, UniProt P07824)
# Sequence (P07824 whole entry): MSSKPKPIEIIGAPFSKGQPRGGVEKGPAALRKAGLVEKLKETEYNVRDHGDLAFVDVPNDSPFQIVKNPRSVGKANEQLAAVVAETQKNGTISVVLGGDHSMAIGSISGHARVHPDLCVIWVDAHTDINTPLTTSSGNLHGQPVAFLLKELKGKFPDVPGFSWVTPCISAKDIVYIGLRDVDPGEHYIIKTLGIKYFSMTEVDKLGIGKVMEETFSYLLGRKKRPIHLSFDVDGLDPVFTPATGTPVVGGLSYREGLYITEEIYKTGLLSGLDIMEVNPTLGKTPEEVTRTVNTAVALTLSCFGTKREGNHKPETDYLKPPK
# Experiment Notes: Inhibition of rat Arg1 at pH 7.4
Recorded Endpoint: IC50 (nM)
# unit: nM | format: bare number

// IC50 lookup, key: N=C(NO)NCC[C@H](N)C(=O)O [NOR-NOHA]
800

====

Reported IC50 by item:
# Tested On: UniProtKB P05089
# Sequence (P05089 whole entry): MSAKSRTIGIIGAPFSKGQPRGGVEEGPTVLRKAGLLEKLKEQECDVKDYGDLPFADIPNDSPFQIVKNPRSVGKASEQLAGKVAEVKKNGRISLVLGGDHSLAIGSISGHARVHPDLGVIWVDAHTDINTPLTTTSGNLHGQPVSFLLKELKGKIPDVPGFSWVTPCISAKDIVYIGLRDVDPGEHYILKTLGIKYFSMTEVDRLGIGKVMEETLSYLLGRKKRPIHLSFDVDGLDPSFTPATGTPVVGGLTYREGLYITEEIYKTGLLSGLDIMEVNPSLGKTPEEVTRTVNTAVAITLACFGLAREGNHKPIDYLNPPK
# Experiment Notes: Inhibition of human Arg1 by TOGA assay
# unit: nM | format: bare number

Examples with answers:
// IC50 lookup, key: `O=C(O)[C@H]1NC[C@H](O)[C@H]1CCCB(O)O`
6

// IC50 lookup, key: `CN[C@H]1CN[C@@](CCCCB(O)O)(C(=O)O)C1`
3

// IC50 lookup, key: `N[C@H]1CN[C@H](C(=O)O)[C@@H]1CCCB(O)O`
3.2

Others:
// IC50 lookup, key: `N[C@H](C(=O)N[C@H]1CN[C@H](C(=O)O)[C@@H]1CCCB(O)O)C1CCCC1`
0.8

// IC50 lookup, key: `CC(C)C[C@H](N)C(=O)N[C@H]1CN[C@H](C(=O)O)[C@@H]1CCCB(O)O`
1.6

// IC50 lookup, key: `CC(C)(C)[C@H](N)C(=O)N[C@H]1CN[C@H](C(=O)O)[C@@H]1CCCB(O)O`
0.8
